Readings of growth inhibition for the listed compounds
run_description: inhibition of 3D7 malaria parasite growth – strain 3D7 (AID 2306);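 note: 0% = DMSO wells and 100% = chloroquine plus artemisinin control wells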
test_context: P. falciparum 3D7 erythrocytic growth, LDH absorbance, 72 h; at 2 µM; hits give high values
// return numeric value only (unit: %, not printed)

Just so you know, measured growth inhibition for CC(=O)N(C)C1CCN(Cc2cccc(-c3ccc(-c4nc5ccc(F)cc5[nH]4)cc3)c2)C1 (centres undefined) came out at 92

Just so you know, measured growth inhibition for "CN(C)CCNC(=O)c1cc2c(-c3ccc(Cl)cc3)nn(C)c2s1" came out at 98

Just so you know, measured growth inhibition for "FC(F)(F)c1ccc2nc(-c3ccc(-c4ccc(CN5CCN(c6cnccn6)CC5)cc4)s3)[nH]c2c1" came out at 101

Just so you know, measured growth inhibition for "Cc1cc(F)ccc1Nc1nc(N(C)c2ccccc2)c2cccc(OCCO)c2n1" came out at 95

Just so you know, measured growth inhibition for "CNC(=O)c1cnc(Nc2ccc(N3CCN(C)CC3)cc2)nc1Nc1cccc([N+](=O)[O-])c1" came out at 103

Just so you know, measured growth inhibition for "COc1ccccc1N1CCN(Cc2c(NC(C)=O)sc(C)c2C)CC1" came out at 95

Just so you know, measured growth inhibition for "COc1ccc(C(=O)CCC(=O)N(Cc2ccc(-c3ccc(CNCCc4ccc(S(C)(=O)=O)cc4)cn3)cc2)C2CCN(Cc3ccccc3)CC2)cc1F" came out at 99

Just so you know, measured growth inhibition for "Cc1ccc(CNC(=O)[C@H](CCCN)Nc2nc(NCC3CCCCC3)ncc2C)cc1" came out at 92

Just so you know, measured growth inhibition for "O=C(C=Cc1cc([N+](=O)[O-])ccc1Cl)N1CCC(CCN2CCC(c3c[nH]c4ccccc34)CC2)CC1" came out at 92

----------
Readings of growth inhibition for the listed compounds
run_description: inhibition of 3D7 malaria parasite growth – strain 3D7 (AID 2306);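 note: 0% = DMSO wells and 100% = chloroquine plus artemisinin control wells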
test_context: P. falciparum 3D7 erythrocytic growth, LDH absorbance, 72 h; at 2 µM; hits give high values
// return numeric value only (unit: %, not printed)

Some solved entries appear below for comparison.
compound	growth inhibition [%]
O=c1cc(NCCCCNCc2cccc(Cl)c2)[nH]c2ccccc12	98
Cc1ccn2c(C(=O)N3CCN(c4cccc5c4nc(-c4ccoc4)n5Cc4ccccn4)CC3)c(C)nc2c1	98
O=S(=O)(Nc1ccc(CCN2CCC(N3CCCCC3)CC2)cc1)c1ccccc1C(F)(F)F	95

Just so you know, measured growth inhibition for "COc1ccc(-c2nc(NC(=O)Cc3cccc(OC)c3)sc2C)cc1" came out at 101

Just so you know, measured growth inhibition for "O=C(/C=C/c1ccc(Cl)c(Cl)c1)NCCCCCN1CCC(CCNC(=O)c2snnc2-c2ccccc2)CC1" came out at 89

Just so you know, measured growth inhibition for "COc1ccc2nccc(NN=Cc3ccncc3)c2c1" came out at 99

Just so you know, measured growth inhibition for "Cc1noc(C)c1C(=O)N1CCc2cc3nccc(N4CCN5CCC[C@H]5C4)c3cc21" came out at 93

Just so you know, measured growth inhibition for COc1cccc(C23N=C(Nc4nc5ccccc5[nH]4)NC2(c2cccc(OC)c2)NC(Nc2nc4ccccc4[nH]2)=N3)c1 (centres undefined) came out at 101

Just so you know, measured growth inhibition for "CC(=O)Nc1ccc(S(=O)(=O)Nc2ccc(Nc3nc(C)cc(N(C)C)n3)cc2)cc1" came out at 100

Data credit: PubChem BioAssay
